Test system: MS2 coat protein
ASSAY COMMENT: apparent Kd, MS2 coat protein; higher = weaker binding; RNA-MaP array; theophylline 2 mM where present
COND: ligand present: theophylline; designed as: OFF switch for theophylline
Classification field: y = apparent Kd at or over 40 nM; n = apparent Kd under 40 nM.

Tell me whether apparent Kd is at least 40 nM here: GAUGAACUAUUUGAUACCAGACUACAUGAGGAUCACCCAUGUGUGUUUAUACUUCAGUCAGUCCCUUGGCAGCAAAUAGUUUAUC
y

Tell me whether apparent Kd is at least 40 nM here: UCGCAUUGCUGCGAUACCAGACAUGAGGAUCACCCAUGUACCAAGGUACGAAAAUAACAUGUCCCUUGGCAGCGCAGCAAUGCGU
y

Tell me whether apparent Kd is at least 40 nM here: AGCGCUGUGCAUGAUACCAGCUACAUGAGGAUCACCCAUGUGCGUCAGAAAUGACUGUGUAGCCCUUGGCAGCAUAAAGCAUGUA
y

Tell me whether apparent Kd is at least 40 nM here: AGACAUGAGGAUCACCCAUGUAGUAUGGAUACCAGAUCCAGAUUUAUCCCUUGGCAGCUGUGGUACAGCGAUGGAUCGCUCCUAG
n

Tell me whether apparent Kd is at least 40 nM here: AGCGACAUGCGUGAUACCAGCUACAUGAGGAUCACCCAUGUCAGUAGGAAACUGCUGUGUAGCCCUUGGCAGCACAGUGCAUGUC
n

---
Tell me whether apparent Kd is at least 40 nM here: AUGUCAUUGGUGCAGCUGUUAAAUGGCGAUACCAGCGUGGAAACACGCCCUUGGCAGCGCCAAAACAUGAGGAUCACCCAUGUUA
y

Tell me whether apparent Kd is at least 40 nM here: AAUAAGCAGCUGCAAGGUGAUCCUGCAGAUACCAGCUAGGAAACUAGCCCUUGGCAGCUGCAACAUGAGGAUCACCCAUGUAAUA
y

Tell me whether apparent Kd is at least 40 nM here: CAAUAAGUAACUGAUACCAGUGUACUGACAUGAGGAUCACCCAUGUUGGGUUUUGUUGUACACCCUUGGCAGCAGAAUCUUAUUG
y

###

System: MS2 coat protein
ASSAY COMMENT: apparent Kd, MS2 coat protein; higher = weaker binding; RNA-MaP array
COND: ligand present: tryptophan; designed as: ON switch for tryptophan
Classification field: Criterion met = apparent Kd at or over 20 nM; Criterion not met = apparent Kd under 20 nM.

Tell me whether apparent Kd is at least 20 nM here: GUUAGUUACACGGCCGCCACUCUUUGGCUUGGCUCAAGCUCCCAACAUGAGGAUCACCCAUGUCAGAGGACCGGGUGAACAACGU
Criterion met

Tell me whether apparent Kd is at least 20 nM here: GCUGCACAUUCGGCCGCCACUGCUGUUACAGGAAGCUAUAGCUCACAUGAGGAUCACCCAUGUCCCAGGACCGGGAAAGUAUGGA
Criterion met

Tell me whether apparent Kd is at least 20 nM here: GACGGCUCGACGGCCGCCACUCCCUCCGACUGAAGGCACAGUGGACAUGAGGAUCACCCAUGUCCGAGGACCGGGUCGAUCCUGG
Criterion not met

Tell me whether apparent Kd is at least 20 nM here: GACCACAUGAGGAUCACCCAUGUCUUGGUCCGAGGACCGGUACGGCCGCCACUCGAGAGCCGUACAAAUAAACGGAGUGCCAUCA
Criterion not met

Tell me whether apparent Kd is at least 20 nM here: CAGUGAGAGUCGGCCGCCACUUAACGCAAGUAGCGCAACCCAAAACAUGAGGAUCACCCAUGUCGAAGGACCGGGACAAUGAGCG
Criterion not met

Tell me whether apparent Kd is at least 20 nM here: CGGAGUAUGACGGCCGCCACUUGCCGGGCGCAGCUGGCUGCUUGACAUGAGGAUCACCCAUGUCCAAGGACCGGGUCAUUCCUCG
Criterion met

Tell me whether apparent Kd is at least 20 nM here: CUUCAGGGUGCGGCCGCCACUUAUUAGGUGCUUGCGACGCCAGCACAUGAGGAUCACCCAUGUUCAAGGACCGGGCACCACCUUU
Criterion not met
